- Test system: Phakopsora pachyrhizi
- ASSAY: Test A: Asian soybean rust control on soybean seedlings
- Assay type: in vivo
- RUN PARAMETERS: 250 ppm, sprayed to run-off on soybean seedlings, inoculated the following day; 100 = 100% disease control, 0 = no control
Test A disease control rating reference
Please answer in the form of a number followed by its unit of measurement.

NC(=O)OC(c1ccccc1)c1ccc(-c2noc(C(F)(F)F)n2)cc1 (stereo not drawn) :: 100%
NC(=O)OC(c1ccc(-c2noc(C(F)(F)F)n2)cc1)c1cccc(F)c1 (stereo not drawn) :: 100%
CNC(=O)OC(c1ccc(-c2noc(C(F)(F)F)n2)cc1)c1cccc(Cl)c1 (stereo not drawn) :: 100%
CN(C)C(=O)OCc1cccc(-c2noc(C(F)(F)F)n2)c1 :: 0%
CC(C)(OC(N)=O)c1ccc(-c2noc(C(F)(F)F)n2)cc1 :: 100%

Looking for the measured Test A disease control rating of CCCNC(=O)OC(c1ccccc1)c1ccc(-c2noc(C(F)(F)F)n2)cc1 (stereo not drawn) , can you help? 100%

Looking for the measured Test A disease control rating of C#CCNC(=O)OC(c1ccccc1)c1ccc(-c2noc(C(F)(F)F)n2)cc1 (stereo not drawn) , can you help? 100%

Looking for the measured Test A disease control rating of CNC(=O)OC(c1ccc(F)cc1)c1ccc(-c2noc(C(F)(F)F)n2)cc1 (stereo not drawn) , can you help? 100%

Looking for the measured Test A disease control rating of CCNC(=O)OC(c1ccc(-c2noc(C(F)(F)F)n2)cc1)c1cccc(F)c1 (stereo not drawn) , can you help? 100%

Looking for the measured Test A disease control rating of C=CCNC(=O)OC(c1ccccc1)c1ccc(-c2noc(C(F)(F)F)n2)cc1 (stereo not drawn) , can you help? 100%

FYI, the data here is from patent US11540518B2.
